A collection of compounds and their measured pEC50
Biological target: Stimulator of interferon genes protein (Homo sapiens, UniProt Q86WV6, G230A/R293Q/R71H)
Sequence (Q86WV6 whole entry R71H/G230A/R293Q): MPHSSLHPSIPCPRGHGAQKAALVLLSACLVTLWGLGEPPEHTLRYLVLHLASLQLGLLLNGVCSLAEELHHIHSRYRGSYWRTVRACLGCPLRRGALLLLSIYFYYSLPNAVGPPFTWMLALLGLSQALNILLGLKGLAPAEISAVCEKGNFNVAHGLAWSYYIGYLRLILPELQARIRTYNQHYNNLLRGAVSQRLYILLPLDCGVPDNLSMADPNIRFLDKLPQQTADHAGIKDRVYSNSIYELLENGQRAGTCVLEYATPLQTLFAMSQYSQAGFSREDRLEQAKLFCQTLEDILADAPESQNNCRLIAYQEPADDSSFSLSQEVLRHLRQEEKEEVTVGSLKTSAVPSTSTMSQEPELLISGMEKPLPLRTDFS
Experiment: Displacement of [3H]-cGAMP from full length STING HAQ mutant in human THP1 cells by filtration binding assay
Please note pEC50 is a logarithmic value: minus log10 of concentration in mol/L. Answer with that number alone.

[[record]]
compound = "COc1cc2cc(C(=O)CC(C)C(=O)O)sc2cc1OC (centres undefined)"
tested_on = "Stimulator of interferon genes protein (Homo sapiens, UniProt Q86WV6, G230A/R293Q/R71H)"
value_measured = 5.26

[[record]]
compound = "Nc1nc2c(ncn2[C@@H]2O[C@@H]3COP(=O)(O)O[C@H]4[C@@H](O)[C@H](n5cnc6c(N)nc(F)nc65)O[C@@H]4COP(=O)(O)O[C@@H]2[C@@H]3O)c(=S)[nH]1"
tested_on = "Stimulator of interferon genes protein (Homo sapiens, UniProt Q86WV6, G230A/R293Q/R71H)"
value_measured = 8.77

[[record]]
compound = "Nc1nc2c(ncn2[C@@H]2O[C@@H]3COP(=O)(O)O[C@H]4[C@@H](O)[C@H](n5cnc6c(N)nc(F)nc65)O[C@@H]4COP(=O)(O)O[C@@H]2[C@@H]3O)c(=O)[nH]1"
tested_on = "Stimulator of interferon genes protein (Homo sapiens, UniProt Q86WV6, G230A/R293Q/R71H)"
value_measured = 7.61

[[record]]
compound = "COc1cc2sc(C(=O)C[C@H](C)C(=O)O)cc2cc1Br"
tested_on = "Stimulator of interferon genes protein (Homo sapiens, UniProt Q86WV6, G230A/R293Q/R71H)"
value_measured = 5.58

[[record]]
compound = "Nc1nc2c(ncn2[C@@H]2S[C@@H]3COP(=O)(O)O[C@H]4[C@@H](O)[C@H](n5cnc6c(N)ncnc65)O[C@@H]4COP(=O)(O)O[C@@H]2[C@@H]3O)c(=O)[nH]1"
tested_on = "Stimulator of interferon genes protein (Homo sapiens, UniProt Q86WV6, G230A/R293Q/R71H)"
value_measured = 8.92

[[record]]
compound = "COc1cc2cc(C(=O)C[C@H](C)C(=O)O)sc2cc1OC"
tested_on = "Stimulator of interferon genes protein (Homo sapiens, UniProt Q86WV6, G230A/R293Q/R71H)"
value_measured = 5.56

[[record]]
compound = "COc1cc2sc(C(=O)C[C@H](C)C(=O)O)cc2c2nc(C)oc12"
tested_on = "Stimulator of interferon genes protein (Homo sapiens, UniProt Q86WV6, G230A/R293Q/R71H)"
value_measured = 6.27

[[record]]
compound = "COc1cc2sc(C(=O)C[C@H](C)C(=O)O)cc2c(F)c1OC"
tested_on = "Stimulator of interferon genes protein (Homo sapiens, UniProt Q86WV6, G230A/R293Q/R71H)"
value_measured = 5.86


Please turn your attention to the following entry.
Query block: May I ask what pEC50 has been recorded for COc1cc2cc(C(=O)C[C@H](C)C(=O)O)sc2cc1Br ?
Result block: 6.05

---

Target: Stimulator of interferon genes protein (Homo sapiens, UniProt Q86WV6, G230A/R293Q/R71H)
Experiment: Displacement of [3H]-cGAMP from full length STING HAQ mutant in human THP1 cells by filtration binding assay
Metric: EC50 (nM)
Reply with just the number (in nM).

Known results for molecules:
[[record]]
molecule = "NC[C@H]1[C@H]2OP(=O)(O)OC[C@H]3O[C@@H](n4cnc5c(N)ncnc54)[C@H](O)[C@@H]3OP(=O)(O)OC[C@H]1O[C@H]2n1cnc2c(=O)[nH]c(N)nc21"
value_measured = 21.5

[[record]]
molecule = "COc1cc2cc(C(=O)CCC(=O)OC(C)(C)C)sc2cc1OC"
value_measured = 5990

[[record]]
molecule = "COc1cc2sc(C(=O)[C@H]3C[C@H]3C(=O)O)cc2c(F)c1OC"
value_measured = 17800

[[record]]
molecule = "COc1cc2sc(C(=O)[C@@H]3C[C@@H]3C(=O)O)cc2c(F)c1OC"
value_measured = 599

[[record]]
molecule = "COc1cc2cc(C(=O)CCC(=O)O)sc2cc1OC"
value_measured = 1720


Please turn your attention to the following entry.
Query block: May I ask what EC50 has been recorded for COc1cc2cc(C(=O)CC(C(=O)O)C(C)C)sc2cc1OC (stereo not drawn) ?
Result block: 9590

---

Molecular target: Stimulator of interferon genes protein (Homo sapiens)
Assay: Inhibition of STING in human THP1 cells by IFN reporter gene assay
Assay type: cell-based
pEC50: −log10 of the molar value.
Metric: pEC50

Known results for compounds:
[[record]]
compound = "CCC[C@H]1[C@H]2OP(=O)(O)OC[C@H]3O[C@@H](n4cnc5c(N)ncnc54)[C@H](O)[C@@H]3OP(=O)(O)OC[C@H]1O[C@H]2n1cnc2c(=O)[nH]c(N)nc21"
metric = "pEC50"
value_measured = "≥ 7.00"

[[record]]
compound = "BP1(=O)OC[C@H]2O[C@@H](n3cnc4c(N)ncnc43)[C@H](O)[C@@H]2OP(=O)(O)OC[C@H]2O[C@@H](n3cnc4c(=O)[nH]c(N)nc43)[C@H](O1)[C@@H]2O (stereo partly drawn)"
metric = "pEC50"
value_measured = "> 4.52"


Please turn your attention to the following entry.
Query block: Please state recorded pEC50 (tested on Stimulator of interferon genes protein (Homo sapiens)) of BP1(=O)OC[C@H]2O[C@@H](n3cnc4c(=O)[nH]c(N)nc43)[C@H](OP(=O)(O)OC[C@H]3O[C@@H](n4cnc5c(N)ncnc54)[C@H](O)[C@@H]3O1)[C@@H]2O (stereo partly drawn)
Result block: > 4.52
